Test system: HS 578T breast
Test: NCI-60 one-dose screen, 48 h (100 = growth as untreated, 0 = no growth, -100 = all killed)
Details: 10 µM unless noted
About 83,000 compounds went through this panel and 20% of them were active in at least one assay; those are over-represented in the sample as a whole.
In this section, each of the molecules is paired with its reported growth.
Note: unit % is implicit; provide only the numeric part.

COc1ccc(Cn2c(Br)c3c(c2-c2cc(OC)c(OC)c(OC)c2)CCc2sc(NC(=O)c4ccc(OC)cc4)nc2-3)cc1 | 83.7
COc1cc(/C=C/C(=O)c2c(C)nc3ccccc3c2/C=C/c2ccccc2)cc(OC)c1OC | 24.7
O=c1oc2ccc(-c3ccc(F)cc3F)cc2c(=O)n1-c1cccc(C(F)(F)F)c1 | 8.28
CCOC(=O)C1=CN(C)C=C(C(=O)OCC)C1c1cc(Br)c(OCC)c(OC)c1 | 62.9
COC(=O)/C(CCC=C(C)C)=C1\[C@@H](OC(C)=O)C[C@@]2(C)[C@H]1C[C@@H](O)[C@H]1[C@@]3(C)CC[C@H](NCCO)[C@@H](C)[C@@H]3CC[C@@]12C | 93.3

Supply growth value. Item: Oc1[nH]c2ccccc2c1N=Nc1nnc2n1N=C(c1ccccc1)CS2
72

Give a short answer stating reported growth for COCCN(C(=O)Cc1cccs1)C(C(=O)NCc1ccc(OC)cc1)c1ccc(C(C)C)cc1 (stereo not drawn) .
76.2

Give growth for O=C(NC1CCCCC1)C(c1cccs1)N(CCc1ccccc1)C(=O)c1ccco1 (stereo not drawn)
93.8

====

Test system: MCF7 breast
Assay: NCI-60 one-dose screen, 48 h
Conditions: 10 µM
About 83,000 compounds went through this panel and 20% of them were active in at least one assay; those are over-represented in the sample as a whole. Calls of active or inactive are those of the source. How the source made its calls: active means growth percent below 10; inactive means the rest.
Thanks in advance; please answer with one of these: TRUE for active, FALSE for inactive

COc1c(B(O)O)cccc1-c1nc2ccc3[nH]ncc3c2c2c1C1CCC2C1 (stereo not given) | FALSE
COC(=O)c1c2c(c(C)[n+]([O-])c1C)C(=O)C(NCc1ccc(F)c(F)c1)=CC2=O | TRUE
CN1CCN(Cc2ccc(NC(=O)c3cncc(C#Cc4nc(N)nc5[nH]ncc45)c3)cc2C(F)(F)F)CC1 | FALSE
CC/C(=C(\CC)c1ccc(OCC[N+](C)(C)C)cc1)c1ccc(OC)cc1 | FALSE

Okay, next one:
State the result this test recorded for COc1ccc(/C=C/C(=O)c2c(C)nc3ccccc3c2/C=C/c2ccccc2)c(OC)c1 .
FALSE

====

System: IGROV1 ovarian
Experiment: NCI-60 one-dose screen, 48 h
Settings: 10 µM unless noted
The panel holds about 83,000 compounds, 20% with a hit somewhere; the sample as a whole holds those more often. Active and inactive are the calls of the source. Rule for the calls: active = growth percent below 10; inactive = the rest.
Your answer must be one of the following: TRUE (active), FALSE (inactive)

Nc1ccc(-c2ccc(-c3ccccc3N)c3[nH]c4ccccc4c23)cc1 | FALSE
COc1ccc(C2Nc3nc(OC)n(C)c(=O)c3N=C3c4ccccc4C(=O)C32)cc1 (stereo not given) | FALSE
CN1CCN(Cc2ccc(C(=O)Nc3cncc(C#Cc4cnc(N)c5ccccc45)c3)cc2C(F)(F)F)CC1 | TRUE
O=C(CCN1C(=O)c2ccccc2C1=O)Nc1ccc(Cl)cc1 | FALSE

Any idea what this test logged for COc1ccc(-c2cn[nH]c2-c2ccc(OC)c(O)c2)cc1 ?
FALSE
